Source of measurements: the nanobody polyreactivity screen of Harvey et al. (2022)

# Assay Info: yeast display, Sf9 membrane polyspecificity reagent, FACS + sequencing; frameworks hold sequencing errors
Measured Quantity: polyreactivity (PSR sort gate)

QVQLVESGGGLVEAGGSLRLSCAASVRTFRYYDMGWFRQAPGKQWELVAAITARGGSTYYADSVKGRFTISRDNEKNTDYLQMNSQKPEDTAVYYCNAYPLQIFYLGNRQYNYWRQGTQVTVSS : high polyreactivity
QVQLVESGGGLVQAGGSLRLSCAASGITLFGYAMGWYRQAPGKERELVAGISRRGGSTYYADSVKGRFTISRDNAKNTVYLQMNSLKPEDTAVYYCAAVYVQPPATAQHYYYWGQGTQVTVSS : high polyreactivity
QVQLVESGGGLVQAGGSLRLSCAASGGTFPYYAMGWYRQAPGKERELVADISGTDGSTYYADSVKGRFTISRDNAKNTVYLQMNSLKPEDTAVYYCAAEEVSWNGTGDYWGQGTQVTVSS : high polyreactivity

---

# Assay Info: yeast display, Sf9 membrane polyspecificity reagent, FACS + sequencing; frameworks hold sequencing errors
Measured Quantity: polyreactivity (PSR sort gate)

QVQLQESGGGMVQAGGSLLWCAASGTISYNREMGWYRQAPGKERELVAGIGVGTITYYADSVKGRFTIIRDNAKNTVYLQMNSLKPEDTAVYYCAAHIDGIDSHAYCGQGTQVTVSS : low polyreactivity
QVQLVESGGGLVQAGGSLRLSCAASGITFSYNAMGWSRQAPGKERELVAAISSNSDSTYYADSVKGRFTISRDNAKNTVYLQMNSLKPEDTAVYYCAADSPDDPDYSGFYYWGQGSQVTVSS : low polyreactivity
QVQHVESGGGLVQAGASLRLSCAASRRTFYRYAMGWSRQAPGKERELVAAISSGGSTNYADCVKGRFTISRDNAKNTVYLHMNRLKPEDTAVYYCAAETRLHRQDYDYWGQGTQVTVSS : low polyreactivity

---

# Assay Info: yeast display, Sf9 membrane polyspecificity reagent, FACS + sequencing; frameworks hold sequencing errors
Measured Quantity: polyreactivity (PSR sort gate)

Known results for sequences:
QVQLVESGGGFVQAGGSLRLSCAASGSIFWLYDMGWYRQAAGKVRELVAAISWSTGGTYYADSVKGRFTISRENAKNTVYLQMNSLKPEDTAVYYCNAETYDQYNYWGQGTQVTVSS : low polyreactivity
QGQLVESGGGLVQAGGSIRLSCAASGSTTFYAMGWYRQAPGKEWELVATISSSAGSTYYADSVKGRFTISRDNAKNTVYLQMNSLKPEDTAFYYCAKAAYGNSYTSDYWGQGTQVTVSS : low polyreactivity
QVQLVESGGGLVQAGGSLRLSCAASGFIFYRYAMGWYRQAPGKERELVAAINWSGGGTYYADSVKGRFTISRDNAKNTVYLQMNSLKPEDTAVYYCAAGRSFRGSYWYEYWGQGTQVTVSS : high polyreactivity
QVHLVESGGGLVQAGGSLRLSCAASGLTFQYYAMGWYRQAPGKQRELVAAISSRGGRTYYADSVKGRFTISRDNAKNTVYLQMNSLKPEDTAVYYCAAEWWAPDRVTRGRIYGYWGQGTQVTVSS : high polyreactivity
QVQLVESGGGLVQAGGSLRLSCAASGSTFAPNAMGWYRQAPGKERELVAVITRSVGSTYYADSVKGRFTISRDNSKNTVYLKMNSLKPEDTAVYFCAADYLRQDDYVALDYWGQGTQVTVSS : low polyreactivity

# batch size: 6; output polyreactivity (PSR sort gate) per entry
1. QVQLVESGGGLVQAGGSLRLSCAASGRIFRYYSMGWYRQAPGKERELVAAISRSGSTNYADSVKGRFTISRDNAKNTVYFQMNSLKPEDTAVYYCAADSNYLYFWRRYKRMDYWGQGTQVTVSS
2. QVQLVESGGGLVQAGGSLRLSCAASGRTFKYNAMGWYRQAPGKERELVAAITRSGSTYYADSVKGRFTISRDNAKNTVYLQMNSLKPEDTAVYYCNARIVNYGSYYYWGQGTQVTVSS
3. QVHLVESGGGLDQAGGSLRLSSAASGFTFQKYAMGWYRQAPGTERELVAAISSSGGRTYYADSLNGRFTISRDNAKITVYLQMNSLKPEDTAVYYCAVRGSYRGWYDYWGQGTQVTVSS
4. QVQLVESGGGLVQAGGSLRLSCDASGRIFSENAMGWYRQAPGKERELVDAITGNGGDTYYADSVKGRFTISRDNAKNTVYLQMNSLKPEDTAVYYCAAVTGGLGGDYWGQGTQVTVSS
5. QVQHVESGGRLVQAGGILRLSCAASGRIFQSNAMGWYRQTPGKERELVAGITKRGGSTYYADSVKGRFTISLDYAKNTVYLQMNSLTPEDTAVYYCAKSWSYDPRYGSWGQGTQVTVSS
6. QVQLVESGGGLVQAGGSLRLSCAASGSIFVYNPMGSYREPPGKERELVAAISQRGGSTYYADSVKGRFTISRDNANNTVYLQMYSLKPEDTAVYYCAAGPGDSGDDYWGQGTQVTVSS

1: high polyreactivity; 2: high polyreactivity; 3: high polyreactivity; 4: low polyreactivity; 5: high polyreactivity; 6: low polyreactivity
